- Tested on: S. aureus ATCC 25923
- Assay procedure: Broth microdilution assay, S. aureus
- Assay type: cell-based, Staphylococcus aureus
- Measurement parameters: 50 µM, 24 h, inhibition of growth, mean ± SD
Value kind: Inhibitory effect (%) S. aureus ATCC 25923

# Compound, Measured target, Result
data = [
    ("C=C(C)[C@@H]1CC[C@]2(C(=O)OC)CC[C@]3(C)[C@H](CC[C@@H]4[C@@]5(C)CC[C@H](O)C(C)(C)[C@@H]5CC[C@]43C)[C@@H]12", "S. aureus ATCC 25923", "5.3±4.2%"),
    ("C=C(C)[C@@H]1CC[C@]2(C(=O)OC)CC[C@]3(C)[C@H](CC[C@@H]4[C@@]5(C)CCC(=O)C(C)(C)[C@@H]5CC[C@]43C)[C@@H]12", "S. aureus ATCC 25923", "2.5±1.3%"),
    ("CC(=O)OCC12CCC3(C(C)C)C1=C1C(CC4C5(C)CCC(OC(C)=O)C(C)(C)C5CCC4(C)C1(C)CC2)n1c(=O)n(-c2ccc(F)cc2)c(=O)n13 (centres unmarked)", "S. aureus ATCC 25923", "6.5±0.9%"),
    ("C=C(C)[C@@H]1CC[C@]2(C#N)CC[C@]3(C)[C@H](CC[C@@H]4[C@@]5(C)CC[C@H](OC(C)=O)C(C)(C)[C@@H]5CC[C@]43C)[C@@H]12", "S. aureus ATCC 25923", "20.5±52.1%"),
    ("COc1cccc(-n2c(=O)n3n(c2=O)C2(C(C)C)CCC4(COC(C)=O)CCC5(C)C(=C42)C3CC2C3(C)CCC(OC(C)=O)C(C)(C)C3CCC25C)c1 (centres unmarked)", "S. aureus ATCC 25923", "3.1±2.0%"),
]
